B1: library; numbered along this chain (parent)
chain: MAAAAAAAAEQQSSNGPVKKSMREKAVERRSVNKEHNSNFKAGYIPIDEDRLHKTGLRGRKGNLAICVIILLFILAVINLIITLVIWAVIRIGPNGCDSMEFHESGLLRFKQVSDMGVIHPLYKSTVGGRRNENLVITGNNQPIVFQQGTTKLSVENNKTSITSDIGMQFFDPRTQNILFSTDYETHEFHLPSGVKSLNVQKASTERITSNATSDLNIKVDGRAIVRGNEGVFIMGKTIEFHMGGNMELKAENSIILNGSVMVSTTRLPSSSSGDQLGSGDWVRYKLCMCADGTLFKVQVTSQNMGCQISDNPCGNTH

Variants of: B1
Experiment: SGCB cell-surface expression functional score (HA stain, bin4 vs bin1, normalised to synonymous) (log10 ratio); higher = more cell-surface SGCB (functional)
reported.property: SGCB cell-surface expression functional score (log10)
Lab note: jot down the number only; don't add units.

Requested read-out: SGCB cell-surface expression functional score (log10). Entry: `V220M` 0.77

Which SGCB cell-surface expression functional score (log10) value belongs to `I162A` ? -0.52

May I ask what SGCB cell-surface expression functional score (log10) has been recorded for `G93V` ? -1.79
